# CRE listing for each entry below
Species: Rattus norvegicus
Experiment: Open TG-GATES - Regimen: Daily Repeat
Format: toxicity, organism-based, Sprague-Dawley
Set-up: regimen Daily Repeat, gender Male, age 6 weeks
Conditions: in vivo, po, 0 mg/kg, […], tissue Plasma, route gavage, dose level Control, time 28 day
Readout Kind: CRE

- O=C(O)Cc1ccccc1Nc1c(Cl)cccc1Cl: 0.5 mg/dL
- CC(=O)Nc1nnc(S(N)(=O)=O)s1 [ACETAZOLAMIDE]: 0.2 mg/dL
- C#C[C@]1(O)CC[C@H]2[C@@H]3CCC4=Cc5oncc5C[C@]4(C)[C@H]3CC[C@@]21C: 0.2 mg/dL
- Clc1c(Cl)c(Cl)c(Cl)c(Cl)c1Cl: 0.7 mg/dL
- Cc1cccc(Nc2ccccc2C(=O)O)c1C: 0.5 mg/dL

----------
Species on record: Rattus norvegicus
Test: Open TG-GATES - Regimen: Single
Format: toxicity, organism-based, Sprague-Dawley
Set-up: regimen Single, gender Male, age 6 weeks
Details: in vivo, po, 0 mg/kg, 9 h, tissue Plasma, route gavage, dose level Control
# Na listing for each entry below
Readout Kind: Na (meq/L)

* CN1C(C(=O)Nc2ccccn2)=C(O)c2sc(Cl)cc2S1(=O)=O | 142.2
* C#C[C@]1(O)CC[C@H]2[C@@H]3CCC4=Cc5oncc5C[C@]4(C)[C@H]3CC[C@@]21C | 141.8
* CN(C)[C@@H]1C(O)=C(C(N)=O)C(=O)[C@@]2(O)C(O)=C3C(=O)c4c(O)cccc4[C@@](C)(O)[C@H]3C[C@@H]12 | 138.8
* CC(=O)Nc1nnc(S(N)(=O)=O)s1 [ACETAZOLAMIDE] | 141.6
* Clc1c(Cl)c(Cl)c(Cl)c(Cl)c1Cl | 142
* COc1cc([C@@H]2c3cc4c(cc3[C@@H](O[C@@H]3O[C@@H]5CO[C@@H](C)O[C@H]5[C@H](O)[C@H]3O)[C@H]3COC(=O)[C@H]23)OCO4)cc(OC)c1O [ETOPOSIDE] | 144.6
* CC(CN1c2ccccc2Sc2ccccc21)N(C)C (stereo not given) | 140.4
* C1CCC(C(CC2CCCCN2)C2CCCCC2)CC1 (stereo not given) | 139.6
* Cc1cccc(Nc2ccccc2C(=O)O)c1C | 141
* CCOC(=O)[C@H](CCc1ccccc1)N[C@@H](C)C(=O)N1CCC[C@H]1C(=O)O | 139

----------
Organism: Rattus norvegicus
Assay: Open TG-GATES - Regimen: Daily Repeat
Type: toxicity, organism-based, Sprague-Dawley
Set-up: regimen Daily Repeat, gender Male, age 6 weeks
Details: in vivo, po, 0 mg/kg, […], tissue Blood, route gavage, dose level Control, time 7 day
Readout Kind: Mono (%)

* CC(CN1c2ccccc2Sc2ccccc21)N(C)C (centres undefined) [PROMETHAZINE] | 2.2
* C#C[C@]1(O)CC[C@H]2[C@@H]3CCC4=Cc5oncc5C[C@]4(C)[C@H]3CC[C@@]21C [DANAZOL] | 3
* CCOC(=O)[C@H](CCc1ccccc1)N[C@@H](C)C(=O)N1CCC[C@H]1C(=O)O | 6
* CN1C(C(=O)Nc2ccccn2)=C(O)c2sc(Cl)cc2S1(=O)=O [LORNOXICAM] | 2.2
* CN(C)[C@@H]1C(O)=C(C(N)=O)C(=O)[C@@]2(O)C(O)=C3C(=O)c4c(O)cccc4[C@@](C)(O)[C@H]3C[C@@H]12 [TETRACYCLINE] | 6.2
* Clc1c(Cl)c(Cl)c(Cl)c(Cl)c1Cl [PERCHLOROBENZENE] | 7.2
* CC(=O)Nc1nnc(S(N)(=O)=O)s1 [ACETAZOLAMIDE] | 2.4
* Cc1cccc(Nc2ccccc2C(=O)O)c1C [MEFENAMIC ACID] | 2.8
* C1CCC(C(CC2CCCCN2)C2CCCCC2)CC1 (centres undefined) [PERHEXILINE] | 1.4

----------
# KIDNEY_R listing for each entry below
Species on record: Rattus norvegicus
Assay: Open TG-GATES - Regimen: Daily Repeat
Assay type: toxicity, organism-based, Sprague-Dawley
Set-up: regimen Daily Repeat, gender Male, age 6 weeks
Settings: in vivo, po, 0 mg/kg, […], tissue Kidney, route gavage, dose level Control, time 28 day
Readout Kind: KIDNEY_R (g)

- CN(C)[C@@H]1C(O)=C(C(N)=O)C(=O)[C@@]2(O)C(O)=C3C(=O)c4c(O)cccc4[C@@](C)(O)[C@H]3C[C@@H]12 [TETRACYCLINE]: 1.3
- CN1C(C(=O)Nc2ccccn2)=C(O)c2sc(Cl)cc2S1(=O)=O [LORNOXICAM]: 1.3
- CC(=O)Nc1nnc(S(N)(=O)=O)s1 [ACETAZOLAMIDE]: 1.3
- C#C[C@]1(O)CC[C@H]2[C@@H]3CCC4=Cc5oncc5C[C@]4(C)[C@H]3CC[C@@]21C [DANAZOL]: 1.4

----------
# IP listing for each entry below
Species on record: Rattus norvegicus
Experiment: Open TG-GATES - Regimen: Daily Repeat
Assay type: toxicity, organism-based, Sprague-Dawley
Design: regimen Daily Repeat, gender Male, age 6 weeks
Conditions: in vivo, po, 0 mg/kg, […], tissue Plasma, route gavage, dose level Control, time 28 day
Readout Kind: IP (mg/dL)

• CCOC(=O)[C@H](CCc1ccccc1)N[C@@H](C)C(=O)N1CCC[C@H]1C(=O)O = 7
• CC(=O)Nc1nnc(S(N)(=O)=O)s1 [ACETAZOLAMIDE] = 6.2
• CC(CN1c2ccccc2Sc2ccccc21)N(C)C (stereo unspecified) [PROMETHAZINE] = 6.3
• Cc1cccc(Nc2ccccc2C(=O)O)c1C [MEFENAMIC ACID] = 7
• CN1C(C(=O)Nc2ccccn2)=C(O)c2sc(Cl)cc2S1(=O)=O [LORNOXICAM] = 6.1
• O=C(O)Cc1ccccc1Nc1c(Cl)cccc1Cl [DICLOFENAC] = 6.5

----------
Organism: Rattus norvegicus
Assay: Open TG-GATES - Regimen: Single
Type: toxicity, organism-based, Sprague-Dawley
Parameters: regimen Single, gender Male, age 6 weeks
Conditions: in vivo, po, 0 mg/kg, 9 h, tissue Plasma, route gavage, dose level Control
Readout Kind: TP (g/dL)

- CN(C)[C@@H]1C(O)=C(C(N)=O)C(=O)[C@@]2(O)C(O)=C3C(=O)c4c(O)cccc4[C@@](C)(O)[C@H]3C[C@@H]12 [TETRACYCLINE]: 5.5
- C1CCC(C(CC2CCCCN2)C2CCCCC2)CC1 (stereo not given) [PERHEXILINE]: 5.6
- Cc1cccc(Nc2ccccc2C(=O)O)c1C [MEFENAMIC ACID]: 5.6
- Clc1c(Cl)c(Cl)c(Cl)c(Cl)c1Cl [PERCHLOROBENZENE]: 5.5
- CC(CN1c2ccccc2Sc2ccccc21)N(C)C (stereo not given) [PROMETHAZINE]: 5.4

----------
Species: Rattus norvegicus
Assay: Open TG-GATES - Regimen: Daily Repeat
Assay type: toxicity, organism-based, Sprague-Dawley
Set-up: regimen Daily Repeat, gender Male, age 6 weeks
Details: in vivo, po, 0 mg/kg, 72 h, tissue Plasma, route gavage, dose level Control, time 3 day
# GLC listing for each entry below
Readout Kind: GLC (mg/dL)

• Clc1c(Cl)c(Cl)c(Cl)c(Cl)c1Cl = 193.4
• Cc1cccc(Nc2ccccc2C(=O)O)c1C = 193.2
• CN(C)[C@@H]1C(O)=C(C(N)=O)C(=O)[C@@]2(O)C(O)=C3C(=O)c4c(O)cccc4[C@@](C)(O)[C@H]3C[C@@H]12 = 183
• CCOC(=O)[C@H](CCc1ccccc1)N[C@@H](C)C(=O)N1CCC[C@H]1C(=O)O = 209.8
• CN1C(C(=O)Nc2ccccn2)=C(O)c2sc(Cl)cc2S1(=O)=O = 222.6
• O=C(O)Cc1ccccc1Nc1c(Cl)cccc1Cl = 193
• CC(=O)Nc1nnc(S(N)(=O)=O)s1 [ACETAZOLAMIDE] = 193.6
• C#C[C@]1(O)CC[C@H]2[C@@H]3CCC4=Cc5oncc5C[C@]4(C)[C@H]3CC[C@@]21C = 197.6
• C1CCC(C(CC2CCCCN2)C2CCCCC2)CC1 (stereo not given) = 192.6
• CC(CN1c2ccccc2Sc2ccccc21)N(C)C (stereo not given) = 195.2

----------
Organism: Rattus norvegicus
Assay: Open TG-GATES - Regimen: Daily Repeat
Format: toxicity, organism-based, Sprague-Dawley
Set-up: regimen Daily Repeat, gender Male, age 6 weeks
Conditions: in vivo, po, 0 mg/kg, […], tissue Plasma, route gavage, dose level Control, time 28 day
# RALB listing for each entry below
Readout Kind: RALB

• CC(CN1c2ccccc2Sc2ccccc21)N(C)C (stereo not given) [PROMETHAZINE] = 3 g/dL
• CCOC(=O)[C@H](CCc1ccccc1)N[C@@H](C)C(=O)N1CCC[C@H]1C(=O)O = 4 g/dL
• C#C[C@]1(O)CC[C@H]2[C@@H]3CCC4=Cc5oncc5C[C@]4(C)[C@H]3CC[C@@]21C [DANAZOL] = 3 g/dL
• CN1C(C(=O)Nc2ccccn2)=C(O)c2sc(Cl)cc2S1(=O)=O [LORNOXICAM] = 3.6 g/dL
• CC(=O)Nc1nnc(S(N)(=O)=O)s1 [ACETAZOLAMIDE] = 3.3 g/dL
• CN(C)[C@@H]1C(O)=C(C(N)=O)C(=O)[C@@]2(O)C(O)=C3C(=O)c4c(O)cccc4[C@@](C)(O)[C@H]3C[C@@H]12 [TETRACYCLINE] = 3.8 g/dL
• Clc1c(Cl)c(Cl)c(Cl)c(Cl)c1Cl [PERCHLOROBENZENE] = 4.2 g/dL
• C1CCC(C(CC2CCCCN2)C2CCCCC2)CC1 (stereo not given) [PERHEXILINE] = 3 g/dL
• Cc1cccc(Nc2ccccc2C(=O)O)c1C [MEFENAMIC ACID] = 3.6 g/dL
• O=C(O)Cc1ccccc1Nc1c(Cl)cccc1Cl [DICLOFENAC] = 3.6 g/dL
